- Species: Rattus norvegicus
- assayOverview: Open TG-GATES - Regimen: Daily Repeat
- Format: toxicity, organism-based, Sprague-Dawley
- Parameters: regimen Daily Repeat, gender Male, age 6 weeks
- conditionLabel: in vivo, po, 100 mg/kg, […], tissue Blood, route gavage, dose level Low, time 28 day
We begin with a simple list: items and their reported Eos.

Below, 3 compounds whose answers are already recorded.
> print(dat)
                                   compound  datavalue
1  CC(S)C(=O)NCC(=O)O (centres undefined) [TIOPRONIN]       1.2%
2  CCCCNC(=O)NS(=O)(=O)c1ccc(C)cc1 [TOLBUTAMIDE]       1.2%
3    O=C(O)c1ccccc1Nc1ccccc1 [FENAMIC ACID]         1%

For the next question, use this compound.
// Eos lookup, compound = CC(=O)[C@@]1(O)CC[C@H]2[C@@H]3C=C(Cl)C4=CC(=O)CC[C@]4(C)[C@H]3CC[C@@]21C [CHLORMADINONE] , result: 1%

###

- Species on record: Rattus norvegicus
- assayOverview: Open TG-GATES - Regimen: Daily Repeat
- Format: toxicity, organism-based, Sprague-Dawley
- Set-up: regimen Daily Repeat, gender Male, age 6 weeks
- conditionLabel: in vivo, po, 0 mg/kg, […], tissue Plasma, route gavage, dose level Control, time 28 day
Mark 1.0 for reported A/G of 1 or greater; mark 0.0 for anything smaller.

> print(dat)
                                   compound  answerlabel
1                   Nc1ccc(Cc2ccc(N)cc2)cc1          0.0
2    CC(S)C(=O)NCC(=O)O (centres undefined)          1.0
3      CN(C/C=C/C#CC(C)(C)C)Cc1cccc2ccccc12          1.0
4  CN(CCOc1ccc(CC2SC(=O)NC2=O)cc1)c1ccccn1.O=C(O)/C=C\C(=O)O (centres undefined) [ROSIGLITAZONE MALEATE]          1.0

Lookup: Decide: is the reported value of A/G for O=C(O)c1ccccc1Nc1ccccc1 equal to or greater than 1?
Found: 0.0

Lookup: Decide: is the reported value of A/G for CCO equal to or greater than 1?
Found: 1.0

Lookup: Decide: is the reported value of A/G for CCCCNC(=O)NS(=O)(=O)c1ccc(C)cc1 [TOLBUTAMIDE] equal to or greater than 1?
Found: 0.0

Lookup: Decide: is the reported value of A/G for O=c1ccc2ccccc2o1 equal to or greater than 1?
Found: 1.0

###

- Organism: Rattus norvegicus
- assayOverview: Open TG-GATES - Regimen: Daily Repeat
- Format: toxicity, organism-based, Sprague-Dawley
- Parameters: regimen Daily Repeat, gender Male, age 6 weeks
- conditionLabel: in vivo, po, 1000 mg/kg, 72 h, tissue Plasma, route gavage, dose level High, time 3 day
We begin with a simple list: items and their reported AST.
Write it as a number; the unit IU/L goes unstated.

> print(dat)
                                   compound  unitannotation  datavalue
1  CC(S)C(=O)NCC(=O)O (centres undefined) [TIOPRONIN]            IU/L       77.2

// AST lookup, compound = CC(=O)[C@@]1(O)CC[C@H]2[C@@H]3C=C(Cl)C4=CC(=O)CC[C@]4(C)[C@H]3CC[C@@]21C [CHLORMADINONE] , result: 71

// AST lookup, compound = O=C(O)c1ccccc1Nc1ccccc1 [FENAMIC ACID] , result: 58.3

// AST lookup, compound = CCCCNC(=O)NS(=O)(=O)c1ccc(C)cc1 [TOLBUTAMIDE] , result: 69.6
